Below: a set of entries, each annotated with reported Minimum inhibitory concentration.
- Tested on: Klebsiella pneumoniae Kp BM1
- Assay type: cell-based
- Condition: Kp BM1
Where a SMILES comes first, the peptide text is derived from it. Bridges are numbered along the chain shown (N, C = ends). [ ]: non-standard residue; d: D form. The star is where a group is joined. Benzothiazole(5-carbonyl) = O=C(c1ccc2scnc2c1)*; X29 = O=C(c1cc(Cl)ccn1)*; Dab = NCC[C@H](N)C(=O)O; Abu = CC[C@H](N)C(=O)O; Dap = NC[C@H](N)C(=O)O
Observation type: Minimum inhibitory concentration (µg/mL)

- CC[C@@H]1NC(=O)[C@@H](CC(C)C)NC(=O)[C@H](CCN)NC(=O)[C@@H](NC(=O)[C@H](CN)NC(=O)[C@@H](NC(=O)[C@H](CCN)NC(=O)c2cc(Cl)ccn2)[C@@H](C)O)CCNC(=O)[C@H]([C@@H](C)O)NC(=O)[C@H](CCN)NC(=O)[C@H](CCN)NC1=O [Compound 26] (X29-[Dab]T[Dap][Dab][Dab][dL][Abu][Dab][Dab]T; lactam 4-C): 0.25
- CC[C@@H]1NC(=O)[C@@H](CC(C)C)NC(=O)[C@H](CCN)NC(=O)[C@@H](NC(=O)[C@H](CN)NC(=O)[C@@H](NC(=O)[C@H](CCN)NC(=O)c2ccc3scnc3c2)[C@@H](C)O)CCNC(=O)[C@H]([C@@H](C)O)NC(=O)[C@H](CCN)NC(=O)[C@H](CCN)NC1=O [Compound 53] ({Benzothiazole(5-carbonyl)}-[Dab]T[Dap][Dab][Dab][dL][Abu][Dab][Dab]T; lactam 4-C; N-terminus assumed): 0.5

---

- System: Acinetobacter baumannii FADDI-AB030
- Experiment: microbe, parasite or virus in culture
- Type: cell-based
- Condition: FADDI-AB030
- Protocol: MICs of the lipopeptides (trifluoroacetic acid salt, TFA) were determined by broth microdilution in cation-adjusted Mueller-Hinton broth (CAMHB) (Oxoid Australia, Thebarton, SA, Australia) according to the Clinical and Laboratory Standards Institute protocol (Clinical and Laboratory Standards Institute, Performance standards for antimicrobial susceptibility testing; twentyforth informational supplement M100-S24. Wayne, Pa., 2014). Polymyxin B sulphate was employed as the control. […]
Where a SMILES comes first, the peptide text is derived from it. Bridges are numbered along the chain shown (N, C = ends). [ ]: non-standard residue; d: D form. The star is where a group is joined. Pyrrole2carbonyl(4,5-Br2) = O=C(c1cc(Br)c(Br)[nH]1)*; Benzofuran(2-CO) = O=C(c1cc2ccccc2o1)*; X16 = O=C(c1cnc(-c2ccccc2)nc1)*; Dab = NCC[C@H](N)C(=O)O; Abu = CC[C@H](N)C(=O)O; Dap = NC[C@H](N)C(=O)O
Observation type: Minimum inhibitory concentration

• CC[C@@H]1NC(=O)[C@@H](CC(C)C)NC(=O)[C@H](CCN)NC(=O)[C@@H](NC(=O)[C@H](CN)NC(=O)[C@@H](NC(=O)[C@H](CCN)NC(=O)c2cc3ccccc3o2)[C@@H](C)O)CCNC(=O)[C@H]([C@@H](C)O)NC(=O)[C@H](CCN)NC(=O)[C@H](CCN)NC1=O [Compound 92] ({Benzofuran(2-CO)}-[Dab]T[Dap][Dab][Dab][dL][Abu][Dab][Dab]T; lactam 4-C) = 0.5 µg/mL
• CC[C@@H]1NC(=O)[C@@H](CC(C)C)NC(=O)[C@H](CCN)NC(=O)[C@@H](NC(=O)[C@H](CN)NC(=O)[C@@H](NC(=O)[C@H](CCN)NC(=O)c2cc(Br)c(Br)[nH]2)[C@@H](C)O)CCNC(=O)[C@H]([C@@H](C)O)NC(=O)[C@H](CCN)NC(=O)[C@H](CCN)NC1=O [Compound 77] ({Pyrrole2carbonyl(4,5-Br2)}-[Dab]T[Dap][Dab][Dab][dL][Abu][Dab][Dab]T; lactam 4-C) = 0.25 µg/mL
• CC[C@@H]1NC(=O)[C@@H](CC(C)C)NC(=O)[C@H](CCN)NC(=O)[C@@H](NC(=O)[C@H](CN)NC(=O)[C@@H](NC(=O)[C@H](CCN)NC(=O)c2cnc(-c3ccccc3)nc2)[C@@H](C)O)CCNC(=O)[C@H]([C@@H](C)O)NC(=O)[C@H](CCN)NC(=O)[C@H](CCN)NC1=O [Compound 73] (X16-[Dab]T[Dap][Dab][Dab][dL][Abu][Dab][Dab]T; lactam 4-C) = 0.5 µg/mL

---

Below: a set of entries, each annotated with reported Minimum inhibitory concentration.
- Tested on: Pseudomonas aeruginosa FADDI-PA01
- Format: cell-based
- Condition: FADDI-
Where a SMILES comes first, the peptide text is derived from it. Bridges are numbered along the chain shown (N, C = ends). [ ]: non-standard residue; d: D form. The star is where a group is joined. X62 = O=C(c1cc(Br)c(Br)s1)*; X1 = O=C(c1ncc(Cl)cc1Cl)*; Dab = NCC[C@H](N)C(=O)O; Abu = CC[C@H](N)C(=O)O; Dap = NC[C@H](N)C(=O)O
Observation type: Minimum inhibitory concentration (µg/mL)

• CC[C@@H]1NC(=O)[C@@H](CC(C)C)NC(=O)[C@H](CCN)NC(=O)[C@@H](NC(=O)[C@H](CN)NC(=O)[C@@H](NC(=O)[C@H](CCN)NC(=O)c2cc(Br)c(Br)s2)[C@@H](C)O)CCNC(=O)[C@H]([C@@H](C)O)NC(=O)[C@H](CCN)NC(=O)[C@H](CCN)NC1=O [Compound 83] (X62-[Dab]T[Dap][Dab][Dab][dL][Abu][Dab][Dab]T; lactam 4-C) = 0.25
• CC(C)C[C@H]1NC(=O)[C@H](CCN)NC(=O)[C@@H](NC(=O)[C@H](CN)NC(=O)[C@@H](NC(=O)[C@H](CCN)NC(=O)c2ncc(Cl)cc2Cl)[C@@H](C)O)CCNC(=O)[C@H]([C@@H](C)O)NC(=O)[C@H](CCN)NC(=O)[C@H](CCN)NC(=O)[C@H](C)NC1=O [Compound 10] (X1-[Dab]T[Dap][Dab][Dab][dL]A[Dab][Dab]T; lactam 4-C) = 0.5

---

- System: Acinetobacter baumannii FADDI-AB030
- Experiment: microbe, parasite or virus in culture
- Type: cell-based
- Condition: FADDI-AB030
Where a SMILES comes first, the peptide text is derived from it. Bridges are numbered along the chain shown (N, C = ends). [ ]: non-standard residue; d: D form. The star is where a group is joined. Isoxazole(3-CO,5-Ph) = O=C(c1cc(-c2ccccc2)on1)*; X27 = O=C(c1sc2ccccc2c1Cl)*; X1 = O=C(c1ncc(Cl)cc1Cl)*; Dab = NCC[C@H](N)C(=O)O; Abu = CC[C@H](N)C(=O)O; Dap = NC[C@H](N)C(=O)O
Observation type: Minimum inhibitory concentration

- CC(C)C[C@H]1NC(=O)[C@H](CCN)NC(=O)[C@@H](NC(=O)[C@H](CN)NC(=O)[C@@H](NC(=O)[C@H](CCN)NC(=O)c2sc3ccccc3c2Cl)[C@@H](C)O)CCNC(=O)[C@H]([C@@H](C)O)NC(=O)[C@H](CCN)NC(=O)[C@H](CCN)NC(=O)[C@H](C)NC1=O [Compound 69] (X27-[Dab]T[Dap][Dab][Dab][dL]A[Dab][Dab]T; lactam 4-C): 0.25 µg/mL
- C[C@@H]1NC(=O)[C@@H](Cc2ccccc2)NC(=O)[C@H](CCN)NC(=O)[C@@H](NC(=O)[C@H](CN)NC(=O)[C@@H](NC(=O)[C@H](CCN)NC(=O)c2ncc(Cl)cc2Cl)[C@@H](C)O)CCNC(=O)[C@H]([C@@H](C)O)NC(=O)[C@H](CCN)NC(=O)[C@H](CCN)NC1=O [Compound 9] (X1-[Dab]T[Dap][Dab][Dab][dF]A[Dab][Dab]T; lactam 4-C): 2 µg/mL
- CC[C@@H]1NC(=O)[C@@H](CC(C)C)NC(=O)[C@H](CCN)NC(=O)[C@@H](NC(=O)[C@H](CN)NC(=O)[C@@H](NC(=O)[C@H](CCN)NC(=O)c2cc(-c3ccccc3)on2)[C@@H](C)O)CCNC(=O)[C@H]([C@@H](C)O)NC(=O)[C@H](CCN)NC(=O)[C@H](CCN)NC1=O [Compound 80] ({Isoxazole(3-CO,5-Ph)}-[Dab]T[Dap][Dab][Dab][dL][Abu][Dab][Dab]T; lactam 4-C): 0.5 µg/mL

---

- Test system: Pseudomonas aeruginosa FADDI-PA01
- Type: cell-based
- Condition: FADDI-
Where a SMILES comes first, the peptide text is derived from it. Bridges are numbered along the chain shown (N, C = ends). [ ]: non-standard residue; d: D form. The star is where a group is joined. Pyrrole2carbonyl(4,5-Br2) = O=C(c1cc(Br)c(Br)[nH]1)*; Quinoline3carbonyl = O=C(c1cnc2ccccc2c1)*; X18 = O=C(c1cc(-c2ccccc2)[nH]n1)*; X45 = O=C(c1cc(C(F)(F)F)ccn1)*; X64 = O=C(c1noc(-c2ccccc2)n1)*; X5 = Cc1ccc2nc(C(=O)*)cn2c1; X50 = O=C(c1sc(Br)cc1Br)*; Dab = NCC[C@H](N)C(=O)O; X3 = O=C(c1cncc(Cl)c1)*; Abu = CC[C@H](N)C(=O)O; Dap = NC[C@H](N)C(=O)O
Observation type: Minimum inhibitory concentration (µg/mL)

- CC[C@@H]1NC(=O)[C@@H](CC(C)C)NC(=O)[C@H](CCN)NC(=O)[C@@H](NC(=O)[C@H](CN)NC(=O)[C@@H](NC(=O)[C@H](CCN)NC(=O)c2sc(Br)cc2Br)[C@@H](C)O)CCNC(=O)[C@H]([C@@H](C)O)NC(=O)[C@H](CCN)NC(=O)[C@H](CCN)NC1=O [Compound 85] (X50-[Dab]T[Dap][Dab][Dab][dL][Abu][Dab][Dab]T; lactam 4-C): 0.25
- CC[C@@H]1NC(=O)[C@@H](CC(C)C)NC(=O)[C@H](CCN)NC(=O)[C@@H](NC(=O)[C@H](CN)NC(=O)[C@@H](NC(=O)[C@H](CCN)NC(=O)c2cn3cc(C)ccc3n2)[C@@H](C)O)CCNC(=O)[C@H]([C@@H](C)O)NC(=O)[C@H](CCN)NC(=O)[C@H](CCN)NC1=O [Compound 49] (X5-[Dab]T[Dap][Dab][Dab][dL][Abu][Dab][Dab]T; lactam 4-C): 0.25
- CC[C@@H]1NC(=O)[C@@H](CC(C)C)NC(=O)[C@H](CCN)NC(=O)[C@@H](NC(=O)[C@H](CN)NC(=O)[C@@H](NC(=O)[C@H](CCN)NC(=O)c2cnc3ccccc3c2)[C@@H](C)O)CCNC(=O)[C@H]([C@@H](C)O)NC(=O)[C@H](CCN)NC(=O)[C@H](CCN)NC1=O [Compound 52] (Quinoline3carbonyl-[Dab]T[Dap][Dab][Dab][dL][Abu][Dab][Dab]T; lactam 4-C): 0.5
- CC[C@@H]1NC(=O)[C@@H](CC(C)C)NC(=O)[C@H](CCN)NC(=O)[C@@H](NC(=O)[C@H](CN)NC(=O)[C@@H](NC(=O)[C@H](CCN)NC(=O)c2noc(-c3ccccc3)n2)[C@@H](C)O)CCNC(=O)[C@H]([C@@H](C)O)NC(=O)[C@H](CCN)NC(=O)[C@H](CCN)NC1=O [Compound 81] (X64-[Dab]T[Dap][Dab][Dab][dL][Abu][Dab][Dab]T; lactam 4-C): 0.5
- CC[C@@H]1NC(=O)[C@@H](CC(C)C)NC(=O)[C@H](CCN)NC(=O)[C@@H](NC(=O)[C@H](CN)NC(=O)[C@@H](NC(=O)[C@H](CCN)NC(=O)c2cncc(Cl)c2)[C@@H](C)O)CCNC(=O)[C@H]([C@@H](C)O)NC(=O)[C@H](CCN)NC(=O)[C@H](CCN)NC1=O [Compound 6] (X3-[Dab]T[Dap][Dab][Dab][dL][Abu][Dab][Dab]T; lactam 4-C): 0.5
- CC[C@@H]1NC(=O)[C@@H](CC(C)C)NC(=O)[C@H](CCN)NC(=O)[C@@H](NC(=O)[C@H](CN)NC(=O)[C@@H](NC(=O)[C@H](CCN)NC(=O)c2cc(Br)c(Br)[nH]2)[C@@H](C)O)CCNC(=O)[C@H]([C@@H](C)O)NC(=O)[C@H](CCN)NC(=O)[C@H](CCN)NC1=O [Compound 77] ({Pyrrole2carbonyl(4,5-Br2)}-[Dab]T[Dap][Dab][Dab][dL][Abu][Dab][Dab]T; lactam 4-C): 0.25
- CC[C@@H]1NC(=O)[C@@H](CC(C)C)NC(=O)[C@H](CCN)NC(=O)[C@@H](NC(=O)[C@H](CN)NC(=O)[C@@H](NC(=O)[C@H](CCN)NC(=O)c2cc(-c3ccccc3)[nH]n2)[C@@H](C)O)CCNC(=O)[C@H]([C@@H](C)O)NC(=O)[C@H](CCN)NC(=O)[C@H](CCN)NC1=O [Compound 84] (X18-[Dab]T[Dap][Dab][Dab][dL][Abu][Dab][Dab]T; lactam 4-C): 0.25
- CC[C@@H]1NC(=O)[C@@H](CC(C)C)NC(=O)[C@H](CCN)NC(=O)[C@@H](NC(=O)[C@H](CN)NC(=O)[C@@H](NC(=O)[C@H](CCN)NC(=O)c2cc(C(F)(F)F)ccn2)[C@@H](C)O)CCNC(=O)[C@H]([C@@H](C)O)NC(=O)[C@H](CCN)NC(=O)[C@H](CCN)NC1=O [Compound 21] (X45-[Dab]T[Dap][Dab][Dab][dL][Abu][Dab][Dab]T; lactam 4-C): 0.25
